Test system: melanoma cell line Sk-Mel-28
Assay: Cytotoxicity in cancer cell lines (CellTiter-Glo), Sk-Mel-28
Assay type: cell-based
Conditions: 48 h; Sk-Mel-28 cells; mean of three tests; read-out: Cytotoxicity EC50 at 48 hours, Sk mel
pEC50: −log10 of the molar value.
ENDPOINT: pEC50

### Prompt Entry CN(C1=CS(=O)(=O)CC1)S(=O)(=O)c1ccc2ccccc2c1 : reported pEC50 = ?
### Response < 4.00

---

Tested on: glioblastoma cell line U87
Assay: Cytotoxicity in cancer cell lines (CellTiter-Glo), U87
Assay type: cell-based
Conditions: Homo sapiens, U-87 MG, 48 h, read-out: Cytotoxicity EC50 at 48 hours, U87
ENDPOINT: EC50 (µM)
Please respond with the number in µM and leave the unit unwritten.

[
  {
    "MOLECULE": "O=C(COC1C=CS(=O)(=O)C1)c1ccc(-c2ccccc2)cc1 (stereo not shown)",
    "ENDPOINT": "EC50",
    "UNIT INFO": "µM",
    "ASSAY RESULT": 32
  }
]

### Prompt # value lookup — system glioblastoma cell line U87, readout EC50, item O=C(Nc1ccc(-c2ccccc2)cc1)OC1C=CS(=O)(=O)C1 (stereo not shown)
### Response 3
